System: ATP;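 further: ATP exposure 15 min at 22 °C before imaging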
assay method text: switch fluorescence ratio, 500 uM ATP over buffer (Cy3 cluster intensity, sum of 5 cycles each) (fold (ratio)); higher = stronger signal-on switching upon ATP binding; sequences stand for … in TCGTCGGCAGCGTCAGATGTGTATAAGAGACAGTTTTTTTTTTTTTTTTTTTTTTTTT…TC
measurement context: aptamer strand: ATP DNA aptamer (quencher-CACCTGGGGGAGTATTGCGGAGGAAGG + anchor), 100 nM annealed; ATP concentration: 500 uM
parameter: switch fluorescence ratio
Kindly provide the number alone.

residue codes	tested on	parameter	test result
AGGGAATTGG	ATP	switch fluorescence ratio	1.01
AGAGGGTGCG	ATP	switch fluorescence ratio	0.934
GGGATGGGCT	ATP	switch fluorescence ratio	1.01
AAGGTTCGAT	ATP	switch fluorescence ratio	0.984
GGAAAACCAG	ATP	switch fluorescence ratio	0.982
TAGCATGTGG	ATP	switch fluorescence ratio	1

Task item: For ATGCGCTCTA , what is its reported switch fluorescence ratio?
Reply: 0.992

Task item: For AGGTGGCATT , what is its reported switch fluorescence ratio?
Reply: 1.04

Task item: For AGTTTAGATG , what is its reported switch fluorescence ratio?
Reply: 0.968

Task item: For GGTGTGAGTG , what is its reported switch fluorescence ratio?
Reply: 0.973

Task item: For TGCGCCCGGG , what is its reported switch fluorescence ratio?
Reply: 1.03

---

System: ATP;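 further: ATP exposure 15 min at 22 °C before imaging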
assay method text: switch fluorescence ratio, 500 uM ATP over buffer (Cy3 cluster intensity, sum of 5 cycles each) (fold (ratio)); higher = stronger signal-on switching upon ATP binding; sequences stand for … in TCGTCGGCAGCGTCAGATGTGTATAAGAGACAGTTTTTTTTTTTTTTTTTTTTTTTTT…TC
measurement context: aptamer strand: ATP DNA aptamer (quencher-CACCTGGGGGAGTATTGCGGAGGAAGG + anchor), 100 nM annealed; ATP concentration: 500 uM
Binary call on switch fluorescence ratio: 1 (yes) from 1 upward, 0 (no) beneath that.

The examples below pair each entry with its known result.
residue codes	label value
TTTAAAAGTC	1 (yes)
TTTAGGTATT	0 (no)
TATGGACATT	1 (yes)
TGAAGCTTTA	1 (yes)
GATACCTTTT	1 (yes)

Here's the next entry for you.
Task item: Is switch fluorescence ratio at least 1? Consider CGTCCAGCTT
Reply: 1 (yes)

---

System: ATP;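 further: ATP exposure 15 min at 22 °C before imaging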
assay method text: switch fluorescence ratio, 500 uM ATP over buffer (Cy3 cluster intensity, sum of 5 cycles each) (fold (ratio)); higher = stronger signal-on switching upon ATP binding; sequences stand for … in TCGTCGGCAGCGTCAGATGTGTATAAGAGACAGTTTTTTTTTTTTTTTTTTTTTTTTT…TC
measurement context: aptamer strand: ATP DNA aptamer (quencher-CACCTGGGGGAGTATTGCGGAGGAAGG + anchor), 100 nM annealed; ATP concentration: 500 uM
parameter: switch fluorescence ratio
Kindly provide the number alone.

Answered cases to consult:
residue codes	test result
TGCATATATA	1.29
CGAGGGGTTC	0.991
TTGATTCATG	0.999
TTTCCGGGGG	0.996
TTCGGATGAG	0.977
TGTGGGGGTG	1.01
TATAAGATGT	0.983
TCGGAGCCAC	3.16
TCCCAGTGCT	1.84
GCACCTATGG	0.979

Task item: For GCGTGGGGGT , what is its reported switch fluorescence ratio?
Reply: 1.01

Task item: For AAAAAACGCC , what is its reported switch fluorescence ratio?
Reply: 1.02

Task item: For TAACGAGATT , what is its reported switch fluorescence ratio?
Reply: 1.02

Task item: For GGGTGGCTTT , what is its reported switch fluorescence ratio?
Reply: 0.987

---

System: ATP;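 further: ATP exposure 15 min at 22 °C before imaging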
assay method text: switch fluorescence ratio, 500 uM ATP over buffer (Cy3 cluster intensity, sum of 5 cycles each) (fold (ratio)); higher = stronger signal-on switching upon ATP binding; sequences stand for … in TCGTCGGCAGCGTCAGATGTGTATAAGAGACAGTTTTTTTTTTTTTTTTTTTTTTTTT…TC
measurement context: aptamer strand: ATP DNA aptamer (quencher-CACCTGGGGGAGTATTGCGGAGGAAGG + anchor), 100 nM annealed; ATP concentration: 500 uM
Below is a list of entries, each paired with its recorded switch fluorescence ratio value.
Kindly provide the number alone.

residue codes	tested on	switch fluorescence ratio
AGGGTTATTG	ATP	1.01
TATTTTGACG	ATP	0.915
GGGGGAAGTG	ATP	0.976
CTGGTGTCGA	ATP	0.978

// below: switch fluorescence ratio requested for another sequence
Task item: For GGCTTGCAAC , what is its reported switch fluorescence ratio?
Reply: 1.03

---

Tested on: ATP;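 further: ATP exposure 15 min at 22 °C before imaging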
assay method text: switch fluorescence ratio, 500 uM ATP over buffer (Cy3 cluster intensity, sum of 5 cycles each) (fold (ratio)); higher = stronger signal-on switching upon ATP binding; sequences stand for … in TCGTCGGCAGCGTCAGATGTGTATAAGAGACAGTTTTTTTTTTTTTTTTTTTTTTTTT…TC
measurement context: aptamer strand: ATP DNA aptamer (quencher-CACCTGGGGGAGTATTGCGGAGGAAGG + anchor), 100 nM annealed; ATP concentration: 500 uM
parameter: switch fluorescence ratio
Kindly provide the number alone.

Answered cases to consult:
residue codes	switch fluorescence ratio
GATGTTGTGG	0.975
AGATTCAATA	0.991
CCGTTTTTGT	0.992
CAGGTACATT	1.02
TGGGTGCGGT	0.991

Task item: For GAGGTAATC , what is its reported switch fluorescence ratio?
Reply: 1.02

Task item: For AATTATGGGG , what is its reported switch fluorescence ratio?
Reply: 0.999

Task item: For AACCTGGGGA , what is its reported switch fluorescence ratio?
Reply: 1.12

Task item: For AGTTTTAGAT , what is its reported switch fluorescence ratio?
Reply: 1

Task item: For CGTTGGTGAG , what is its reported switch fluorescence ratio?
Reply: 0.937

Task item: For TCACTGGTTC , what is its reported switch fluorescence ratio?
Reply: 1.03

Task item: For TACACGGGGT , what is its reported switch fluorescence ratio?
Reply: 1.05

Task item: For CGGACCATTT , what is its reported switch fluorescence ratio?
Reply: 1.04

Task item: For GTTTCCGTTT , what is its reported switch fluorescence ratio?
Reply: 0.973

Task item: For TTTATCCGGT , what is its reported switch fluorescence ratio?
Reply: 1.01

Task item: For TAAATCGGCG , what is its reported switch fluorescence ratio?
Reply: 0.989

Task item: For AATGCGTGTG , what is its reported switch fluorescence ratio?
Reply: 1.12

Task item: For TTTATTTGAC , what is its reported switch fluorescence ratio?
Reply: 1.03

Task item: For TCATCTTAAT , what is its reported switch fluorescence ratio?
Reply: 0.992

Task item: For GCATATTTTT , what is its reported switch fluorescence ratio?
Reply: 1.03

Task item: For GGGGTACTAG , what is its reported switch fluorescence ratio?
Reply: 0.998

Task item: For AAGAGAGTAT , what is its reported switch fluorescence ratio?
Reply: 0.992

Task item: For TAAAGGGTGG , what is its reported switch fluorescence ratio?
Reply: 0.987

Task item: For GGGAGCGCGT , what is its reported switch fluorescence ratio?
Reply: 1.02

Task item: For TTTTGAGTTC , what is its reported switch fluorescence ratio?
Reply: 1.04

Task item: For CAAAGGTCTC , what is its reported switch fluorescence ratio?
Reply: 0.986

---

Test system: ATP;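 further: ATP exposure 15 min at 22 °C before imaging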
assay method text: switch fluorescence ratio, 500 uM ATP over buffer (Cy3 cluster intensity, sum of 5 cycles each) (fold (ratio)); higher = stronger signal-on switching upon ATP binding; sequences stand for … in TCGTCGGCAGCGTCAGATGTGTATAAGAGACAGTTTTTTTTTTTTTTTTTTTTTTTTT…TC
measurement context: aptamer strand: ATP DNA aptamer (quencher-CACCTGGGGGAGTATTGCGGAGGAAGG + anchor), 100 nM annealed; ATP concentration: 500 uM
parameter: switch fluorescence ratio
Kindly provide the number alone.

Answered cases to consult:
residue codes	parameter	test result
GGTTACGAAG	switch fluorescence ratio	1.01
ACGGGTTGTC	switch fluorescence ratio	0.981
ATTGGACTAG	switch fluorescence ratio	0.989

Task item: For GGTTTGGTAT , what is its reported switch fluorescence ratio?
Reply: 0.99

Task item: For TTTGAGTGAT , what is its reported switch fluorescence ratio?
Reply: 1.01

Task item: For TTTATTCTCT , what is its reported switch fluorescence ratio?
Reply: 1.01

Task item: For AAGATATAGA , what is its reported switch fluorescence ratio?
Reply: 1.01

Task item: For GATTGCGAGA , what is its reported switch fluorescence ratio?
Reply: 1.01

---

Below is a list of entries, each paired with its recorded switch fluorescence ratio value.
System: ATP;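 further: ATP exposure 15 min at 22 °C before imaging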
assay method text: switch fluorescence ratio, 500 uM ATP over buffer (Cy3 cluster intensity, sum of 5 cycles each) (fold (ratio)); higher = stronger signal-on switching upon ATP binding; sequences stand for … in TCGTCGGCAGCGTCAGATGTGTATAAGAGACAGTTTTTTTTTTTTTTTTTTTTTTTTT…TC
measurement context: aptamer strand: ATP DNA aptamer (quencher-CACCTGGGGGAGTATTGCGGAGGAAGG + anchor), 100 nM annealed; ATP concentration: 500 uM
Kindly provide the number alone.

residue codes	test result
CGAGGGTCTC	1.01

Task item: For GAACACGGTA , what is its reported switch fluorescence ratio?
Reply: 1.2

Task item: For ACATATATGA , what is its reported switch fluorescence ratio?
Reply: 1.06

Task item: For GTACATATAA , what is its reported switch fluorescence ratio?
Reply: 1.03

Task item: For CTGATGAGAG , what is its reported switch fluorescence ratio?
Reply: 0.997

Task item: For TTTCAGTTGT , what is its reported switch fluorescence ratio?
Reply: 1.01
